Ref: PubChem BioAssay (NCI)

Kindly state TGI for each of the entries shown.
system: M14 melanoma; assay: NCI tumour cell line growth inhibition, 48 h

Req: Would you mind telling me what TGI value was observed for Cc1c(C(=N)N)oc2ccccc12 ?
Resp: > 100 µM

Req: Would you mind telling me what TGI value was observed for CCOC(=O)CC1c2ccc(O)cc2OC(=O)C1c1ccc(N)cc1 (stereo unspecified) ?
Resp: > 100 µM

Req: Would you mind telling me what TGI value was observed for CCOC(=O)C1N(S(=O)(=O)c2ccc(C)cc2)CCC12C(c1ccc(OC)c(OC)c1)=Nc1ccccc12 (stereo unspecified) ?
Resp: > 100 µM

Req: Would you mind telling me what TGI value was observed for O=C(/C=C/c1ccccc1O)C(c1ccccc1)c1ccccc1 ?
Resp: > 100 µM

Req: Would you mind telling me what TGI value was observed for c1ccc(C2=NOC3COc4ccccc4OCC23)cc1 (stereo unspecified) ?
Resp: > 100 µM

Req: Would you mind telling me what TGI value was observed for CC(=O)NC1C(O)CC(OCCCSCCN)(C(=O)O)OC1C(O)C(O)CO (stereo unspecified) ?
Resp: > 100 µM

Req: Would you mind telling me what TGI value was observed for C[C@]12CC[C@H](O)C[C@@H]1CC[C@@H]1[C@@H]2CC[C@]2(C)[C@@H](c3cc(C(F)(F)F)n[nH]3)CC[C@@H]12 ?
Resp: 23.9 µM

Req: Would you mind telling me what TGI value was observed for Cc1ccc(S(=O)(=O)N2CCCN(S(=O)(=O)c3ccc(C)cc3)CC2)cc1 ?
Resp: > 100 µM

Req: Would you mind telling me what TGI value was observed for C[N+](C)(C)CC1CCc2ccccc2C1=O (stereo unspecified) ?
Resp: 17.9 µM

Req: Would you mind telling me what TGI value was observed for COC(=O)CCCc1ccc2c(c1)CC1(Cc3ccccc3C1)C2 ?
Resp: > 100 µM

Req: Would you mind telling me what TGI value was observed for Cc1cc(C)n(-c2nc3ccccc3c(=O)[nH]2)n1 ?
Resp: > 100 µM

Req: Would you mind telling me what TGI value was observed for C=C(CC[C@@H](C)[C@H]1CC[C@H]2[C@@H]3C[C@@H](O)[C@H]4C[C@@H](O)CC[C@]4(CO)[C@H]3CC[C@]12C)C(C)C ?
Resp: 14.7 µM

Req: Would you mind telling me what TGI value was observed for C=C1C[C@H](O)[C@H]2C(C[Se]c3ccccc3)C(=O)O[C@@H]2[C@H]2[C@H](C)C(O)C[C@@H]12 (stereo partly specified) ?
Resp: > 100 µM

Req: Would you mind telling me what TGI value was observed for O=C1CCC(=O)N1CNc1cccc(NCN2C(=O)CCC2=O)c1 ?
Resp: > 100 µM

Req: Would you mind telling me what TGI value was observed for c1ccc(C[n+]2ccc3c(c2)CCCC3)cc1 ?
Resp: > 100 µM

Req: Would you mind telling me what TGI value was observed for CC(Cc1ccc(O)cc1)NCC(O)c1ccc(O)c(O)c1 (stereo unspecified) ?
Resp: > 100 µM

Req: Would you mind telling me what TGI value was observed for C[Si](C)(C)CC(N)=O ?
Resp: > 100 µM

Req: Would you mind telling me what TGI value was observed for Cc1nc2c(n1-c1ccc(Br)cc1)C(=O)c1ccccc1C2=O ?
Resp: > 100 µM

Req: Would you mind telling me what TGI value was observed for COc1ccc(C(=O)/C=C/c2ccc(OCc3ccc(Cl)cc3)cc2)cc1OC ?
Resp: > 1000 µM

Req: Would you mind telling me what TGI value was observed for Cc1ccc(N=Nc2c(O)c(S(=O)(=O)O)cc3cc(S(=O)(=O)O)ccc23)c(C)c1 ?
Resp: > 100 µM

Req: Would you mind telling me what TGI value was observed for CC(C)(C)C1CCC2c3c([nH]c4ccccc34)C3C(=O)N(c4ccc(C(=O)O)cc4)C(=O)C3C2C1 (stereo unspecified) ?
Resp: 37.3 µM

----------
tested on: SK-OV-3 ovarian; experiment: NCI tumour cell line growth inhibition, 48 h; in the data active = GI50 below about 0.43 µM; inactive = the rest
Permitted responses: 1.0 for active, 0.0 for inactive

Req: Field: outcome | Entry: Clc1ccc(CN2COc3c(ccc4cccnc34)C2)cc1Cl
Resp: 0.0

Req: Field: outcome | Entry: Cn1cc(-c2ccc(-c3cn(C)c4ncccc34)[nH]2)c2cccnc21
Resp: 0.0

Req: Field: outcome | Entry: O=C(CCl)Nc1ccc2c(Nc3cc(O)ccc3Cl)ncnc2c1
Resp: 0.0

Req: Field: outcome | Entry: O=C1N=C(c2c(-c3[nH]c(=O)c4ccc(Br)cc4c3O)c(O)c3ccccc3c2O)C(=O)c2cc(Br)ccc21
Resp: 1.0

Req: Field: outcome | Entry: COC(=O)c1ccc([C@H]2c3[nH]c4ccccc4c3C[C@H](C(=O)OC)N2C(=O)CCl)cc1
Resp: 0.0

Req: Field: outcome | Entry: COc1ccc(C(=O)C2C(C#N)C(C#N)C3C=Cc4ccccc4N32)cc1 (configuration not stated)
Resp: 0.0

Req: Field: outcome | Entry: COc1ccc(C(=O)NCCNc2nccc(-c3c(-c4ccc(F)cc4)nc4sccn34)n2)cc1
Resp: 0.0

Req: Field: outcome | Entry: C[C@@H]1CCC2[C@@H](C)[C@@H](OC3CCC(O)CC3)OC3O[C@@]4(C)CCC1[C@]32OO4 (some centres not stated)
Resp: 0.0

Req: Field: outcome | Entry: O=[N+]([O-])[O][Sn]([O][Sn]([O][N+](=O)[O-])([c]1ccccc1)[c]1ccccc1)([c]1ccccc1)[c]1ccccc1
Resp: 0.0

Req: Field: outcome | Entry: Cc1ccncc1N1CCN(c2ccnc(Cl)c2)C1=O
Resp: 0.0

Req: Field: outcome | Entry: COc1ccc(OC)c(Nc2nc3ccccc3c3c2-c2ccc(OC)cc2C3=O)c1
Resp: 0.0

Req: Field: outcome | Entry: COc1ccc(NC(=O)c2sc3nc(C)c(C(=O)/C=C/c4ccccc4)cc3c2N)cc1
Resp: 0.0

----------
system: SNB-75 CNS; experiment: NCI tumour cell line growth inhibition, 48 h
Kindly state TGI for each of the entries shown.

Req: Would you mind telling me what TGI value was observed for O=C(Cc1nc2cccnc2nc1/C=C(\O)c1ccccc1)c1ccccc1 ?
Resp: 96.4 µM

Req: Would you mind telling me what TGI value was observed for C=CCNC(=O)NNC(O)(C(=O)OCC)C(F)(F)F (centres undefined) ?
Resp: > 100 µM

Req: Would you mind telling me what TGI value was observed for CN1N=C(c2ccncc2)OC1c1ccc(Cl)cc1Cl (centres undefined) ?
Resp: 55.6 µM

Req: Would you mind telling me what TGI value was observed for CC1(SCC(N)C(=O)O)CC(=O)NC1=O (centres undefined) ?
Resp: > 100 µM

Req: Would you mind telling me what TGI value was observed for Cc1cc(C)n(-c2nc3ccccc3c(=O)[nH]2)n1 ?
Resp: > 71.6 µM

Req: Would you mind telling me what TGI value was observed for CC1=Nn2c(nnc2-c2ccccc2Cl)NC(C)(C)C1 ?
Resp: > 100 µM

Req: Would you mind telling me what TGI value was observed for Cc1nc2c(n1-c1ccc(Br)cc1)C(=O)c1ccccc1C2=O ?
Resp: > 62.1 µM

Req: Would you mind telling me what TGI value was observed for CC(=O)N(C)C=C1C(=O)N(C)C(=O)N(C)C1=O ?
Resp: > 100 µM

Req: Would you mind telling me what TGI value was observed for CC1(C)CC2(S(=O)(=O)c3ccccc3)ON1CC2S(=O)(=O)c1ccccc1 (centres undefined) ?
Resp: > 100 µM

----------
tested on: HOP-92 NSCLC; assay: NCI tumour cell line growth inhibition, 48 h
readout name: TGI (µM)
Response body: numeric value in µM, unit text excluded.

Req: Would you mind telling me what TGI value was observed for COc1cc2c(cc1OCCCCOc1cc3nc(C)nc(Cl)c3cc1OC)N=C[C@@H]1CCCN1C2=O ?
Resp: 5.52

Req: Would you mind telling me what TGI value was observed for C[PH+](C)C.C[PH+](C)C.[Au] ?
Resp: 6.58

Req: Would you mind telling me what TGI value was observed for O=C(O)[C@@H]1CCCN1Cc1cc2cc3c(cc2c2cc(OCc4ccccc4)ccc12)OCO3 ?
Resp: 63.3

Req: Would you mind telling me what TGI value was observed for O=P(Nc1ccccc1)(Oc1ccccc1)N1CCN(c2ccccc2)CC1 (stereo not given) ?
Resp: 33.9

Req: Would you mind telling me what TGI value was observed for CCOC(=O)C(C(N)=O)c1nc2cc([N+](=O)[O-])ccc2nc1/C=C(\O)c1ccccc1 (stereo not given) ?
Resp: 39.1

----------
tested on: NCI-H226 lung; experiment: NCI tumour cell line growth inhibition, 48 h
readout name: TGI

Req: Give the reported TGI for COc1cc2c(c(OC)c1)C(C)=NC(C)C2 (stereo unspecified) (system: NCI-H226 lung).
Resp: > 100 µM

Req: Give the reported TGI for COc1cc(C2CC(C)(N3CCCC3)Oc3cc4c(cc32)OCO4)cc(OC)c1OC (stereo unspecified) (system: NCI-H226 lung).
Resp: > 82.4 µM

Req: Give the reported TGI for CCOC(=O)[C@@]12C(C)=CC(=O)O[C@]1(C)C[C@H]2C#N (system: NCI-H226 lung).
Resp: > 100 µM

Req: Give the reported TGI for CC1=Nc2c(N)nc(N)nc2N(C)C1 (system: NCI-H226 lung).
Resp: > 100 µM

Req: Give the reported TGI for CCN(CC)CCCNc1ccc2ncn3c4ccc(O)cc4c(=O)c1c23 (system: NCI-H226 lung).
Resp: 3.5 µM

Req: Give the reported TGI for CC(C)(C)c1cc(COc2cc(COc3ccc(-c4c5c(nc6c4CCc4ccc(-c7c8ccccc8nc8ccccc78)cc4-6)-c4cc(-c6c7ccccc7nc7ccccc67)ccc4CC5)cc3)cc(OCc3cc(C(C)(C)C)cc(C(C)(C)C)c3)c2)cc(C(C)(C)C)c1 (system: NCI-H226 lung).
Resp: > 100 µM
